test: gradient 5% acetonitrile 3 min, to 50% in 2 min, to 85% in 15 min, held 3 min, 100 µL/min; conditions: column: Zorbax Extend-C18 2.1 x 50 mm; eluents: water / acetonitrile, 0.1% formic acid
Outcome Measure: RP-LC retention time (s)

Please review the following examples before continuing.
Note RP-LC retention time for the compound shown: COc1cccc(NC(=O)Cn2c(=O)n(-c3ccc(F)cc3)c(=O)c3c2cc(C)n3C)c1
834

Note RP-LC retention time for the compound shown: COc1cc(NC(=O)C2(Cc3ccccc3)CCCCC(=O)N2)cc(OC)c1 (configuration not stated)
847

Note RP-LC retention time for the compound shown: CC1CCN(c2cc(-n3cnc(C(=O)NCC4CCCO4)c3)ncn2)CC1 (configuration not stated)
819

Note RP-LC retention time for the compound shown: O=C(CC1CCCC1)N1CCCC(c2nn[nH]n2)C1 (configuration not stated)
660

Note RP-LC retention time for the compound shown: COc1ccccc1CC(=O)N1CCN(c2ncnc3c2CCC3)CC1
621

[A] Cc1nc2cc(N3CC(C(=O)Nc4ccc(C)c(C)c4)CC3=O)ccc2o1 (configuration not stated)
[B] CCn1nccc1-c1cccc(-c2noc(-c3ccc(OC)cc3)n2)c1
Higher RP-LC retention time between A and B ? Your answer should be the label of the entry you select.
B
(B: 1210 s, A: 614 s)

====

assay: gradient 5% acetonitrile 3 min, to 50% in 2 min, to 85% in 15 min, held 3 min, 100 µL/min; settings: column: Zorbax Extend-C18 2.1 x 50 mm; eluents: water / acetonitrile, 0.1% formic acid
Outcome Measure: RP-LC retention time (s)

Note RP-LC retention time for the compound shown: CSc1ccc(CNC(=O)Cc2nnc(-c3cccc(F)c3)o2)cc1
794

Note RP-LC retention time for the compound shown: COc1ccc(S(=O)(=O)NCc2ccc3c(c2)CCN3C(=O)C(C)C)cc1OC
803

Note RP-LC retention time for the compound shown: CCOC(=O)C1C(=O)C=C(c2cccc(NS(C)(=O)=O)c2)CC1c1cccs1 (stereo not drawn)
822

====

test: gradient 5% acetonitrile 3 min, to 50% in 2 min, to 85% in 15 min, held 3 min, 100 µL/min; conditions: column: Zorbax Extend-C18 2.1 x 50 mm; eluents: water / acetonitrile, 0.1% formic acid
Outcome Measure: RP-LC retention time (s)

Note RP-LC retention time for the molecule shown: CCOCN(C(=O)Cn1c(COC)nc2ccccc21)c1c(C)cccc1CC
874

Note RP-LC retention time for the molecule shown: CCOC(=O)c1cn(CC)c2cc(N3CCCC3)c(F)cc2c1=O
822

Note RP-LC retention time for the molecule shown: COCCNC(=O)C1CCN(c2nc3ccc(-c4cccs4)nc3s2)CC1
774

Note RP-LC retention time for the molecule shown: O=C([C@@H]1C[C@H](Oc2ccccc2)CN1C(=O)CCc1nc2ccccc2s1)N1CCCC1
815

Note RP-LC retention time for the molecule shown: COc1cccc(CNC(=O)C2CCCN(c3ncnc4c3nc3n4CCCCC3)C2)c1 (centres undefined)
736

Note RP-LC retention time for the molecule shown: CCNC(=O)c1cc(N2CCCC2)nc2ccc(F)cc12
580

Note RP-LC retention time for the molecule shown: COCCN1C(=O)CCc2cc(NS(=O)(=O)c3ccc(Cl)s3)ccc21
793

Note RP-LC retention time for the molecule shown: CCNC(=O)Nc1ccc2c(c1)CN(S(=O)(=O)c1cnn(CC)c1)CCO2
704

Note RP-LC retention time for the molecule shown: CN(C)C(=O)c1cn(C2CN(C(=O)Nc3ccccc3F)C2)nn1
629
